# Solubility (PGMEA) annotations
Test: Solubility in PGMEA
Type: physicochemical
Conditions: concentration when PGMEA was added dropwise to 0.1 g of the compound under stirring and was dissolved completely

Previously resolved entries follow.
| MOLECULE | Solubility (PGMEA) |
| --- | --- |
| CCN(CCC#N)c1ccc(/C=C(\C#N)C(=O)OCCCCCCOC(=O)/C(C#N)=C/c2ccc(N(CC)CCC#N)cc2)cc1 [Compound No. 58] | 1.0 or less wt % |
| CCCCN(CCCC)c1ccc(/C=C(\C#N)C(=O)Oc2ccc(C(c3ccc(OC(=O)/C(C#N)=C/c4ccc(N(CCCC)CCCC)cc4)cc3)(C(F)(F)F)C(F)(F)F)cc2)cc1 [Compound No. 69] | 1.0 or less wt % |
| C=C(C)C(=O)OCCN(C)c1ccc(/C=C(\C#N)C(=O)OCCCCCCOC(=O)/C(C#N)=C/c2ccc(N(C)CCOC(=O)C(=C)C)cc2)cc1 [Compound No. 66] | 1.0 or less wt % |

Entry under test: CCN(CC)c1ccc(/C=C(\C#N)C(=O)OCC(C)(COC(=O)/C(C#N)=C/c2ccc(N(C)CCO)cc2)COC(=O)/C(C#N)=C/c2ccc(N(C)CCO)cc2)cc1 [Compound No. 99] . Its Solubility (PGMEA) was 1.0 or less wt %

Entry under test: N#C/C(=C\c1ccc(N2CCOCC2)cc1)C(=O)OCCCCCCCOC(=O)/C(C#N)=C/c1ccc(N2CCOCC2)cc1 [Compound No. 60] . Its Solubility (PGMEA) was 1.0 or less wt %
